Tested on: Candida albicans
Test: In vitro antifungal activity against Candida albicans
Type: functional
Conditions: Candida albicans; read-out: MIC
Assign MIC to each entry below.

In one line, give reported MIC of the entry O=S1O[C@H](c2ccccc2)[C@](Cn2cncn2)(c2ccc(Cl)cc2Cl)O1 (stereo not given in full) .
> 100 µg/mL

In one line, give reported MIC of the entry `Cc1ccc([C@H]2OC(=O)O[C@]2(Cn2cncn2)c2ccccc2Cl)cc1` .
> 100 µg/mL

In one line, give reported MIC of the entry `CC(C)[C@H]1OC(=O)O[C@@]1(Cn1cncn1)c1ccc(Cl)cc1` .
> 100 µg/mL

In one line, give reported MIC of the entry CCCCC(O)(Cn1cncn1)C(=O)c1ccc(Cl)cc1Cl (stereo not given) .
100 µg/mL

In one line, give reported MIC of the entry O=C(c1ccccc1Cl)C(O)(Cn1cncn1)c1ccccc1Cl (stereo not given) .
50 µg/mL

In one line, give reported MIC of the entry CCCC(O)C(O)(Cn1cncn1)c1ccc(Cl)cc1Cl (stereo not given) .
> 100 µg/mL

In one line, give reported MIC of the entry `Fc1ccc([C@H]2OC(=S)O[C@]2(Cn2cncn2)c2ccc(Cl)cc2Cl)cc1` .
100 µg/mL

In one line, give reported MIC of the entry `Fc1ccc([C@H]2OCO[C@]2(Cn2cncn2)c2ccc(Cl)cc2)cc1` .
> 100 µg/mL

In one line, give reported MIC of the entry CC(C)C(O)(Cn1cncn1)C(C)(O)c1ccc(Cl)cc1 (stereo not given) .
> 100 µg/mL

In one line, give reported MIC of the entry `Clc1ccc([C@@]2(Cn3cncn3)OCO[C@@H]2c2ccc(Cl)cc2Cl)cc1` .
> 100 µg/mL

* * *

Tested on: Aspergillus fumigatus
Assay: In vitro antifungal activity against Aspergillus fumigatus
Format: functional
Settings: Aspergillus fumigatus; read-out: MIC
Assign MIC to each entry below.
State the answer as a number, implicitly in µg/mL.

Provide MIC, tested on Aspergillus fumigatus, for CC(C)C(=O)C(O)(Cn1ccnc1)c1ccc(Cl)cc1 (stereo not given) .
25

Provide MIC, tested on Aspergillus fumigatus, for CC(O)(c1ccc(F)cc1)C(O)(Cn1cncn1)c1ccc(Cl)cc1Cl (stereo in doubt; 173) .
25

Provide MIC, tested on Aspergillus fumigatus, for `CC(C)[C@H]1OCO[C@]1(Cn1cncn1)c1ccc(Cl)cc1` .
100

Provide MIC, tested on Aspergillus fumigatus, for CCCC(O)(Cn1cncn1)C(=O)c1ccc(Cl)cc1Cl (stereo not given) .
50

Provide MIC, tested on Aspergillus fumigatus, for O=C(c1ccc(Cl)cc1)C(O)(Cn1cncn1)C1CCCC1 (stereo not given) .
50

* * *

Tested on: Candida albicans
Test: In vitro antifungal activity against Candida albicans
Assay type: functional
Conditions: Candida albicans; read-out: MIC
QUANTITY: MIC

In one line, give reported MIC of the entry CC(C)[C@H]1OS(=O)O[C@@]1(Cn1cncn1)c1ccc(Cl)cc1 (stereo not given in full) .
> 100 µg/mL

In one line, give reported MIC of the entry CCCCC(O)(c1ccc(F)cc1)C(O)(Cn1cncn1)c1ccccc1Cl (stereo in doubt; 189) .
> 100 µg/mL

In one line, give reported MIC of the entry OC(c1ccc(Cl)cc1)C(O)(Cn1ccnc1)c1ccc(Cl)cc1 (stereo not given) .
> 100 µg/mL

In one line, give reported MIC of the entry OC(Cc1ccc(Cl)cc1)(c1ccc(F)cc1)C(O)(Cn1cncn1)c1ccc(Cl)cc1 (stereo not given) .
> 100 µg/mL

In one line, give reported MIC of the entry `O=C1O[C@H](c2ccccc2)[C@@](Cn2ccnc2)(c2ccc(Cl)cc2Cl)O1` .
100 µg/mL

In one line, give reported MIC of the entry OC(c1ccc(Cl)cc1Cl)C(O)(Cn1cncn1)c1ccc(F)cc1 (stereo not given) .
> 100 µg/mL

In one line, give reported MIC of the entry O=S1O[C@H](c2ccc(Cl)cc2Cl)[C@](Cn2cncn2)(c2ccc(Cl)cc2)O1 (stereo not given in full) .
100 µg/mL

In one line, give reported MIC of the entry O=C(c1ccccc1Cl)C(O)(Cn1cncn1)c1ccccc1 (stereo not given) .
> 100 µg/mL

In one line, give reported MIC of the entry Cc1ccccc1C(=O)C(O)(Cn1cncn1)c1ccccc1C (stereo not given) .
> 100 µg/mL

In one line, give reported MIC of the entry O=C1O[C@H](c2ccc(Cl)cc2)[C@](Cn2cncn2)(c2ccc(Cl)cc2Cl)O1 (relative stereo) .
> 100 µg/mL
